Target Desc: dengue type 4 virus (DENV-4), strain 814669, virions (dengue type 4 virus, UniProt P09866 280-774; P09866 114-279)
Measurement Protocol: ELISA, virion-coated plate, Fab from ~140 µg/ml
Measured Attribute: ELISA titer of Fab binding

INPUT: Fill in the blank: the reported ELISA titer of Fab binding of chimpanzee Fab 2H7 (Fab, V domains shown) VH: EVQLLESGGGLVQPGGSRRLSCAASGFTISDNVMHWVRQAPGKGLEWVALIYSADSTHYADSVKGRFTISRDNSKNTLYLQMDGLRPEDTAVYYCAREYCTGGTCFAHFDYWGQGTLVTVSS VL: ELQMTQSPSSLSASVGDRVTITCRASQSITNYLSWYQQKPGKAPKLLISYSSTLQSGVPSRFSGSGSGTDFTLTISSLQPEDFATYYCHYGYGTHTFGPGTKVDIKR is ____.
OUTPUT: 3.8 log10 of reciprocal dilution
